Data credit: ChEMBL document CHEMBL1127442

- target-of-assay: Type-1 angiotensin II receptor (Oryctolagus cuniculus, UniProt P34976)
- Sequence (P34976 whole entry): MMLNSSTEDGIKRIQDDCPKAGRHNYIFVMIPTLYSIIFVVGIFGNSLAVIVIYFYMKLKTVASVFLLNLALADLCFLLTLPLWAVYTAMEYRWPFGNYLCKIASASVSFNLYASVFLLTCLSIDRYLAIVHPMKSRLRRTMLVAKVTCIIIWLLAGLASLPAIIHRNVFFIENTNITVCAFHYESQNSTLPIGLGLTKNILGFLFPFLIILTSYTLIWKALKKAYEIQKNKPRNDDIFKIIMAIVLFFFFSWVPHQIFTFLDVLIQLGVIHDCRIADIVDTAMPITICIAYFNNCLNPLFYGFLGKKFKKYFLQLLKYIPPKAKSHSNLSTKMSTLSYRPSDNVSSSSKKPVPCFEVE
pIC50: −log10 of the molar value.
measured-parameter: pIC50

The examples below pair each entry with its known result.
1. CCCCc1nn(-c2ccccc2C(F)(F)F)c(=O)n1Cc1ccc(-c2ccccc2S(=O)(=O)NC(=O)NC(C)(C)C)cc1; 8.59
2. CCCCc1nn(-c2ccccc2C(F)(F)F)c(=O)n1Cc1ccc(-c2ccccc2S(=O)(=O)NC(=O)c2cc(C)oc2C(F)(F)F)cc1; 9.77

1 = CCCCOC(=O)NS(=O)(=O)c1ccccc1-c1ccc(Cn2c(CCCC)nn(-c3ccccc3C(F)(F)F)c2=O)cc1
2 = O=C(NS(=O)(=O)c1ccccc1-c1ccc(Cn2c(CCCC(F)(F)F)nn(-c3ccccc3C(F)(F)F)c2=O)cc1)c1ccccc1Cl
Q: Parameter check: reported pIC50 is higher for which label, 1 or 2 ? // output: label of the selected item
Result: 2
(2: 9.44, 1: 9.23)

1 = CCCCc1nn(-c2ccccc2C(F)(F)F)c(=O)n1Cc1ccc(-c2ccccc2S(=O)(=O)NC(=O)C2CC3CCC2C3)cc1 (configuration not stated)
2 = CCCCc1nn(-c2ccccc2Cl)c(=O)n1Cc1ccc(-c2ccccc2S(=O)(=O)NC(=O)c2ccccc2)cc1
Q: Look at 1 and 2 . Which one has the lower recorded pIC50 number? Indicate which entry you chose by stating its label.
Result: 2
(2: 8.85, 1: 9.41)
